Assign IC50 to each entry below.
Numeric answer only, unit µM assumed.

Prompt line: Fill: IC50 (Interstitial collagenase (Homo sapiens, UniProt P03956)) for this compound O=C(OC1CCCCC1)c1cccc(S)n1
Response line: 102

Prompt line: Fill: IC50 (Interstitial collagenase (Homo sapiens, UniProt P03956)) for this compound O=C(OCc1cc(F)c(F)cc1F)c1cccc(=S)[nH]1
Response line: 124

Prompt line: Fill: IC50 (Interstitial collagenase (Homo sapiens, UniProt P03956)) for this compound CCCCCOC(=O)c1cccc(=O)[nH]1
Response line: 50

Prompt line: Fill: IC50 (Interstitial collagenase (Homo sapiens, UniProt P03956)) for this compound O=C(OCc1cccc(-c2ccccc2)c1)c1cccc(=S)[nH]1
Response line: 75

Prompt line: Fill: IC50 (Interstitial collagenase (Homo sapiens, UniProt P03956)) for this compound COc1ccc(COC(=O)c2cccc(S)n2)cc1
Response line: 108

Prompt line: Fill: IC50 (Interstitial collagenase (Homo sapiens, UniProt P03956)) for this compound O=C(Oc1ccco1)c1cccc(=O)[nH]1
Response line: 46

Prompt line: Fill: IC50 (Interstitial collagenase (Homo sapiens, UniProt P03956)) for this compound O=C(OCc1cccc(C(F)(F)F)c1)c1cccc(=O)[nH]1
Response line: 28

Prompt line: Fill: IC50 (Interstitial collagenase (Homo sapiens, UniProt P03956)) for this compound O=C(OCCCCOc1ccccc1)c1cccc(=O)[nH]1
Response line: 67
